Where these numbers come from: PubChem BioAssay (NCI)

# Test system: SF-268 CNS
# ASSAY EXPLANATION: NCI tumour cell line growth inhibition, 48 h
REPORTED ENDPOINT: GI50

Quote GI50 with test system SF-268 CNS for O=C(O)[C@@H]1CCCN1Cc1cc2cc3c(cc2c2cc(OCc4ccccc4)ccc12)OCO3
24.4 µM

Quote GI50 with test system SF-268 CNS for C[C@@H]1CCC2[C@@H](C)[C@@H](OC3CCC(O)CC3)OC3O[C@@]4(C)CCC1[C@]32OO4 (some centres not stated)
76.5 µM

Quote GI50 with test system SF-268 CNS for Cc1cc(C)c(S(=O)(=O)N2CCN(c3cc4c(cc3F)c(=O)c(C(=O)O)cn4C3CC3)CC2)c(C)c1
3.96 µM

Quote GI50 with test system SF-268 CNS for COc1ccc(C(=O)C2C(C#N)C(C#N)C3C=Cc4ccccc4N32)cc1 (configuration not stated)
3.92 µM

Quote GI50 with test system SF-268 CNS for CC1=C2[C@H]3OC(=O)[C@@H](C)[C@@H]3CC[C@@]2(C)C=CC1=O
> 100 µM

Quote GI50 with test system SF-268 CNS for Cc1ccc2nc3ccccc3c(NCc3ccccc3)c2c1
3.83 µM

Quote GI50 with test system SF-268 CNS for Cc1ccncc1N1CCN(c2ccnc(Cl)c2)C1=O
> 100 µM

Quote GI50 with test system SF-268 CNS for O=C(N/N=C\c1cc(Cl)ccc1O)c1ccncc1
2.69 µM

Quote GI50 with test system SF-268 CNS for Cc1ccc(S(=O)(=O)Oc2ccccc2-c2ccccc2)cc1
5.95 µM

Quote GI50 with test system SF-268 CNS for Cc1c(-c2ccc(O)c(O)c2)oc(=O)c2c(O)cc(O)cc12
11.1 µM

Quote GI50 with test system SF-268 CNS for CCCCCC/C=C\CCCCCCCCCc1cc(O)cc(OC)c1O
0.441 µM

Quote GI50 with test system SF-268 CNS for COc1cc2c3c(n(CCCN(C)C)c(=O)c2cc1OC)-c1cc2c(cc1C3=O)OCO2
1.11 µM

* * *

Would you kindly list TGI for each of these compounds?
# System: SN12C renal
# ASSAY EXPLANATION: NCI tumour cell line growth inhibition, 48 h

Tell us which TGI value is on record for C[Si](C)(C)CC(N)=O
> 100 µM

Tell us which TGI value is on record for O=[N+]([O-])[O][Sn]([O][Sn]([O][N+](=O)[O-])([c]1ccccc1)[c]1ccccc1)([c]1ccccc1)[c]1ccccc1
> 100 µM

Tell us which TGI value is on record for CCOC(=O)[C@@]12C(C)=CC(=O)O[C@]1(C)C[C@H]2C#N
> 100 µM

Tell us which TGI value is on record for NC(=O)[C@@H](CCC(F)(F)F)N(Cc1ccc(-c2ncon2)cc1F)S(=O)(=O)c1ccc(Cl)cc1
> 57.8 µM

Tell us which TGI value is on record for CN(C)c1ccc(/C=C(/C(=O)O)c2csc(-c3nc(/C(=C\c4ccc(N(C)C)cc4)C(=O)O)cs3)n2)cc1
> 100 µM

Tell us which TGI value is on record for O=S(=O)(Cc1nc2ccccc2s1)c1nc2ccccc2s1
35.2 µM

Tell us which TGI value is on record for COc1cc2c3c(n(CCCNCCCNCCCn4c5c(c6cc(OC)c(OC)cc6c4=O)C(=O)c4ccccc4-5)c(=O)c2cc1OC)-c1ccccc1C3=O
> 51.6 µM

Tell us which TGI value is on record for Cc1nc2c(n1-c1ccc(Br)cc1)C(=O)c1ccccc1C2=O
> 100 µM

Tell us which TGI value is on record for c1ccc(C2=NOC3COc4ccccc4OCC23)cc1 (centres undefined)
> 100 µM

* * *

# Test system: SF-268 CNS
# ASSAY EXPLANATION: NCI tumour cell line growth inhibition, 48 h
REPORTED ENDPOINT: TGI (µM)
Report the value in µM with no unit label.

Tell us which TGI value is on record for O=C(CC1(O)C(=O)N(Cc2ccccc2)c2ccc(Br)cc21)c1ccc(C(=O)NCC2CCC3(CC2)OOC2(CCCCC2)OO3)cc1 (centres undefined)
6.74

Tell us which TGI value is on record for N#CC1Sc2ccccc2-n2cccc21 (centres undefined)
78.2

* * *

# Tested on: A498 renal
# ASSAY EXPLANATION: NCI tumour cell line growth inhibition, 48 h
REPORTED ENDPOINT: TGI (µM)
Report the value in µM with no unit label.

Tell us which TGI value is on record for c1ccc2c(c1)Sc1ccccc1N2CC1CN2CCC1CC2 (centres undefined)
24.7

Tell us which TGI value is on record for CC(=O)O[C@H]1C(=O)[C@@]2(C)[C@H]([C@H](OC(=O)c3ccccc3)[C@]3(O)C[C@H](OC(=O)[C@H](O)[C@@H](NC(=O)c4ccoc4)c4ccccc4)C(C)=C1C3(C)C)[C@]1(OC(C)=O)CO[C@@H]1C[C@@H]2O
0.698

Tell us which TGI value is on record for CCCOc1cc2c(cc1O)CC[C@@H]1[C@@H]2CC[C@]2(C)[C@@H](O)CC[C@@H]12
20.7

* * *

Would you kindly list TGI for each of these molecules?
# System: DMS 114 small cell lung
# ASSAY EXPLANATION: NCI tumour cell line growth inhibition, 48 h

Tell us which TGI value is on record for CC1(SCC(N)C(=O)O)CC(=O)NC1=O (stereo not given)
> 100 µM

Tell us which TGI value is on record for CC(=O)NC1C(O)CC(OCCCSCCN)(C(=O)O)OC1C(O)C(O)CO (stereo not given)
> 100 µM

Tell us which TGI value is on record for O=c1c2ccccc2sc2nc(CCl)nn12
48.6 µM

Tell us which TGI value is on record for CSC1C=C(C(C)C)CCC1(C)SC (stereo not given)
30.6 µM

Tell us which TGI value is on record for Cc1ccc(NC(=O)CSc2nnc(Cc3ccccc3)o2)c(C)c1
> 100 µM

Tell us which TGI value is on record for CCOC(=O)C1N(S(=O)(=O)c2ccc(C)cc2)CCC12C(c1ccc(OC)c(OC)c1)=Nc1ccccc12 (stereo not given)
> 100 µM

Tell us which TGI value is on record for Cc1cc(Br)ccc1NC1=CC(=O)C(=O)c2ccccc21
45 µM

Tell us which TGI value is on record for CC(=O)N(C)C=C1C(=O)N(C)C(=O)N(C)C1=O
> 100 µM

Tell us which TGI value is on record for O=S(=O)(N/N=C/c1c(Cl)cccc1Cl)c1ccccc1
> 100 µM

Tell us which TGI value is on record for CC(C)(C)c1ccc2c(c1)S(=O)(=O)Nc1cccc(c1)NS(=O)(=O)c1cc(C(C)(C)C)ccc1OCCOCCO2
> 100 µM

Tell us which TGI value is on record for Cc1c(C(=N)N)oc2ccccc12
> 100 µM

Tell us which TGI value is on record for CN(C)c1ccc(/C=C(/C(=O)O)c2csc(-c3nc(/C(=C\c4ccc(N(C)C)cc4)C(=O)O)cs3)n2)cc1
> 100 µM

Tell us which TGI value is on record for CN(C)CC/C(=N\Nc1c(F)c(F)c(F)c(F)c1F)c1ccccc1
79.2 µM

Tell us which TGI value is on record for COc1nc(NC2OCC(O)C(O)C2O)c(NC2OCC(O)C(O)C2O)c(=O)n1C (stereo not given)
> 100 µM

Tell us which TGI value is on record for Cc1nc2c(n1-c1ccc(Br)cc1)C(=O)c1ccccc1C2=O
> 100 µM

* * *

Would you kindly list TGI for each of these compounds?
# System: SK-MEL-5 melanoma
# ASSAY EXPLANATION: NCI tumour cell line growth inhibition, 48 h

Tell us which TGI value is on record for C=C(CC[C@@H](C)[C@H]1CC[C@H]2[C@@H]3C[C@@H](O)[C@H]4C[C@@H](O)CC[C@]4(CO)[C@H]3CC[C@]12C)C(C)C
15.9 µM

Tell us which TGI value is on record for Cn1ccnc1C(=O)/C=C/c1ccc(C(=O)Nc2ccccc2F)cc1
4.56 µM

Tell us which TGI value is on record for COc1cc2c3c(n(CCCN(C)C)c(=O)c2cc1OC)-c1cc2c(cc1C3=O)OCO2
2.09 µM

Tell us which TGI value is on record for O=C(Cc1nc2cccnc2nc1/C=C(\O)c1ccccc1)c1ccccc1
38 µM

Tell us which TGI value is on record for CO[C@@H]1[C@H](O)CC[C@]2(CO2)[C@H]1[C@@]1(C)O[C@@H]1CC=C(C)C
> 200 µM

Tell us which TGI value is on record for CCOC(=O)C(=O)Nc1cccc(Cl)c1C
> 100 µM

Tell us which TGI value is on record for Cc1c(C(=N)N)oc2ccccc12
> 100 µM

Tell us which TGI value is on record for O=C1CS/C(=N/S(=O)(=O)c2ccc(N3N=C4c5ccccc5CC4C3c3cccs3)cc2)N(c2ccccc2)C1 (stereo unspecified)
> 100 µM

Tell us which TGI value is on record for C[Si](C)(C)CC(N)=O
> 100 µM

Tell us which TGI value is on record for c1cc2ccc3cc2cc1CNCCN1CCNCc2ccc4ccc(cc4c2)CNCCN(CCNC3)CCNCc2ccc3ccc(cc3c2)CNCC1
> 100 µM

Tell us which TGI value is on record for C[PH+](C)C.C[PH+](C)C.[Au]
13.4 µM

Tell us which TGI value is on record for Cc1ccc(C(=O)CCl)o1
> 10 µM

Tell us which TGI value is on record for C=CCN1C(=O)C(=O)N(CC=C)C(=O)C1=O
> 100 µM

Tell us which TGI value is on record for C=C1CC(c2ccc(O)c(OC)c2)Oc2c(OC)cccc21 (stereo unspecified)
> 100 µM

Tell us which TGI value is on record for O=[N+]([O-])[O][Sn]([O][Sn]([O][N+](=O)[O-])([c]1ccccc1)[c]1ccccc1)([c]1ccccc1)[c]1ccccc1
> 100 µM

Tell us which TGI value is on record for CC(C)(C)OC(=O)CCC1NC(=O)[C@@H]2Cc3c([nH]c4ccccc34)C(C3CCCCC3)N2C1=O (stereo partly specified)
> 100 µM

Tell us which TGI value is on record for COC(=O)c1c(C(=O)OC)c2ccc(-c3ccc(Cl)cc3)nn2c1C(=O)c1ccc([N+](=O)[O-])cc1
> 100 µM

Tell us which TGI value is on record for Cc1ccc2c3c4c(ccc13)C(C)(C)OC4=C(C(C)C)C2=O
> 100 µM

Tell us which TGI value is on record for COc1ccc2c(c1)-c1c(c3cc(OC)ccc3n1CCN1CCOCC1)CC2
79.5 µM

Tell us which TGI value is on record for N#CCCN1C/C(=C/c2ccccc2)C(=O)/C(=C/c2ccccc2)C1
3.07 µM

Tell us which TGI value is on record for C=CCNC(=O)NNC(O)(C(=O)OCC)C(F)(F)F (stereo unspecified)
> 100 µM
